Hey, just so you know, these numbers are from patent US20220288057A1.

# method: Plasma and brain concentrations after MES testing (UHPLC-ESI-MS/MS)
# cond: CF-1, mouse, in vivo, po, 2 mg/kg, Concentration Brain, Compound A 2 mg/kg PO, 2 hr
measurement name: concentration at 2 h (ng/g)
// units = ng/g; emit number, no label

Problem: So what's the measured concentration at 2 h for this one? Cc1cc(N2CCc3cc(F)ccc3C2)cc(C)c1NC(=O)CC(C)(C)C [Compound A]
Result: 75.8

* * *

# method: Plasma and brain concentrations after MES testing (UHPLC-ESI-MS/MS)
# cond: CF-1, mouse, in vivo, po, 1 mg/kg, Concentration Plasma, Compound A 1 mg/kg PO single dose, tissue collection 0.5 hr
measurement name: concentration at 0.5 h (nM)
// units = nM; emit number, no label

Problem: So what's the measured concentration at 0.5 h for this one? Cc1cc(N2CCc3cc(F)ccc3C2)cc(C)c1NC(=O)CC(C)(C)C [Compound A]
Result: 130

* * *

# method: Terminal plasma and brain concentrations in AC-MES studies (UHPLC-MS/MS)
# Assay type: in vivo, mouse
# cond: CF-1, mouse, in vivo, 3 mg/kg, Study 4D; Cenobamate 3 mg/kg single oral dose, 2 h pre-treatment; CF-1 mice; read-out: Mean Brain
measurement name: concentration at 2 h
Put your answer as a value accompanied by its unit after it.

Problem: So what's the measured concentration at 2 h for this one? NC(=O)O[C@@H](Cn1ncnn1)c1ccccc1Cl [Cenobamate, reference compound]
Result: 8.7 µM

* * *

# method: Terminal plasma and brain concentrations in AC-MES studies (UHPLC-MS/MS)
# Format: in vivo, mouse
# cond: male, CF-1, mouse, in vivo, po, 10 mg/kg, Study 4B; Compound A 10 mg/kg single oral dose; CF-1 mice; read-out: Mean Brain
measurement name: concentration at 30 min (µM)
// units = µM; emit number, no label

Problem: So what's the measured concentration at 30 min for this one? Cc1cc(N2CCc3cc(F)ccc3C2)cc(C)c1NC(=O)CC(C)(C)C
Result: 0.91

* * *

# method: Clinical observations / behavioral signs in AC-MES studies
# Format: in vivo, mouse
# cond: male, CF-1, mouse, in vivo, 7.5 mg/kg, Study 2B, Compound A 7.5 mg/kg group; read-out: plasma concentration of individual mouse showing behavioral signs (tremors, decreased activity, splayed hindlimbs)
measurement name: concentration at 30 min (nM)
// units = nM; emit number, no label

Problem: So what's the measured concentration at 30 min for this one? Cc1cc(N2CCc3cc(F)ccc3C2)cc(C)c1NC(=O)CC(C)(C)C [Compound A]
Result: 746

* * *

# method: Terminal plasma and brain concentrations in AC-MES studies (UHPLC-MS/MS)
# Format: in vivo, mouse
# cond: CF-1, mouse, in vivo, 5 mg/kg, Study 4F, Cenobamate 5 mg/kg PO, 2 h, alone; read-out: mean plasma concentration
measurement name: concentration at 2 h (µM)
// units = µM; emit number, no label

Problem: So what's the measured concentration at 2 h for this one? NC(=O)O[C@@H](Cn1ncnn1)c1ccccc1Cl [Cenobamate, reference compound]
Result: 31.3

* * *

# method: Terminal plasma and brain concentrations in AC-MES studies (UHPLC-MS/MS)
# Format: in vivo, mouse
# cond: male, CF-1, mouse, in vivo, po, 1 mg/kg, Study 4A, Compound A 1 mg/kg PO, 0.5 h; read-out: mean plasma concentration
measurement name: concentration at 0.5 h (nM)
// units = nM; emit number, no label

Problem: So what's the measured concentration at 0.5 h for this one? Cc1cc(N2CCc3cc(F)ccc3C2)cc(C)c1NC(=O)CC(C)(C)C [Compound A]
Result: 80

* * *

# method: Terminal plasma and brain concentrations in AC-MES studies (UHPLC-MS/MS)
# Assay type: in vivo, mouse
# cond: male, CF-1, mouse, in vivo, po, 3 mg/kg, Study 2C, Compound A 3 mg/kg PO, 0.5 h, alone; read-out: Mean Plasma
measurement name: concentration at 0.5 h (µM)
// units = µM; emit number, no label

Problem: So what's the measured concentration at 0.5 h for this one? Cc1cc(N2CCc3cc(F)ccc3C2)cc(C)c1NC(=O)CC(C)(C)C [Compound A]
Result: 0.284

* * *

# method: Plasma and brain concentrations after MES testing (UHPLC-ESI-MS/MS)
# cond: CF-1, mouse, in vivo, po, 4 mg/kg, Concentration Plasma, Compound A 4 mg/kg PO, 2 hr
measurement name: concentration at 2 h (ng/mL)
// units = ng/mL; emit number, no label

Problem: So what's the measured concentration at 2 h for this one? Cc1cc(N2CCc3cc(F)ccc3C2)cc(C)c1NC(=O)CC(C)(C)C
Result: 83

* * *

# method: Terminal plasma and brain concentrations in AC-MES studies (UHPLC-MS/MS)
# Assay type: in vivo, mouse
# cond: CF-1, mouse, in vivo, Study 4G, analyte Compound A; 0.5 mg/kg in combination with Cenobamate 5 mg/kg; read-out: mean total plasma concentration
# Experimental: Sample Collection and Preparation: Mice were anesthetized by isoflurane inhalation (according to SOP TECH-018) until they reached a surgical plane of anesthesia. […] Plasma Samples: Extraction of plasma samples was carried out by protein precipitation using acetonitrile. […] The samples were analyzed by ultra-high performance liquid chromatography electrospray ionization tandem mass spectrometry (UHPLC-ESI-MS/MS) as described in the bioanalysis procedure below. […]
measurement name: concentration at 0.5 h (µM)
// units = µM; emit number, no label

Problem: So what's the measured concentration at 0.5 h for this one? Cc1cc(N2CCc3cc(F)ccc3C2)cc(C)c1NC(=O)CC(C)(C)C
Result: 0.03

* * *

# method: Terminal plasma and brain concentrations in AC-MES studies (UHPLC-MS/MS)
# Assay type: in vivo, mouse
# cond: male, CF-1, mouse, in vivo, po, 10 mg/kg, Study 2B, Compound A 10 mg/kg PO, 0.5 h; read-out: B/P Ratio
measurement name: Kp at 0.5 h
Number only, no unit.

Problem: So what's the measured Kp at 0.5 h for this one? Cc1cc(N2CCc3cc(F)ccc3C2)cc(C)c1NC(=O)CC(C)(C)C
Result: 1.64

* * *

# method: Terminal plasma and brain concentrations in AC-MES studies (UHPLC-MS/MS)
# Format: in vivo, mouse
# cond: male, CF-1, mouse, in vivo, po, 7.5 mg/kg, Study 4B; Compound A 7.5 mg/kg single oral dose; CF-1 mice; read-out: Mean Plasma
measurement name: concentration at 30 min (nM)
// units = nM; emit number, no label

Problem: So what's the measured concentration at 30 min for this one? Cc1cc(N2CCc3cc(F)ccc3C2)cc(C)c1NC(=O)CC(C)(C)C
Result: 530

* * *

# method: Terminal plasma and brain concentrations in AC-MES studies (UHPLC-MS/MS)
# Type: in vivo, mouse
# cond: CF-1, mouse, in vivo, 20 mg/kg, Study 2D, Lacosamide 20 mg/kg PO, 2 h; read-out: Mean Plasma
measurement name: concentration at 2 h (µM)
// units = µM; emit number, no label

Problem: So what's the measured concentration at 2 h for this one? COC[C@@H](NC(C)=O)C(=O)NCc1ccccc1 [Lacosamide, reference compound]
Result: 23.9

* * *

# method: Terminal plasma and brain concentrations in AC-MES studies (UHPLC-MS/MS)
# Type: in vivo, mouse
# cond: male, CF-1, mouse, in vivo, 1 mg/kg, Study 4A; Compound A 1 mg/kg single oral dose, 30 min pre-treatment; CF-1 mice; read-out: Plasma
measurement name: concentration at 30 min (nM)
// units = nM; emit number, no label

Problem: So what's the measured concentration at 30 min for this one? Cc1cc(N2CCc3cc(F)ccc3C2)cc(C)c1NC(=O)CC(C)(C)C [Compound A]
Result: 80

* * *

# method: Terminal plasma and brain concentrations in AC-MES studies (UHPLC-MS/MS)
# Assay type: in vivo, mouse
# cond: male, CF-1, mouse, in vivo, po, 5 mg/kg, Study 4B; Compound A 5 mg/kg single oral dose; CF-1 mice; read-out: Mean Plasma
measurement name: concentration at 30 min
Put your answer as a value accompanied by its unit after it.

Problem: So what's the measured concentration at 30 min for this one? Cc1cc(N2CCc3cc(F)ccc3C2)cc(C)c1NC(=O)CC(C)(C)C [Compound A]
Result: 1000 nM

* * *

# method: Terminal plasma and brain concentrations in AC-MES studies (UHPLC-MS/MS)
# Assay type: in vivo, mouse
# cond: male, CF-1, mouse, in vivo, po, 5 mg/kg, Study 4A; Compound A 5 mg/kg single oral dose; read-out: B/P Ratio (brain to plasma ratio)
measurement name: Kp at 30 min
Number only, no unit.

Problem: So what's the measured Kp at 30 min for this one? Cc1cc(N2CCc3cc(F)ccc3C2)cc(C)c1NC(=O)CC(C)(C)C
Result: 1.45

* * *

# method: Plasma and brain concentrations after MES testing (UHPLC-ESI-MS/MS);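 also: brain and plasma were sampled from mice right after the efficacy test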
# cond: CF-1, mouse, in vivo, po, 8 mg/kg, Concentration Plasma, Compound A 8 mg/kg PO, 2 hr
measurement name: concentration at 2 h (ng/mL)
// units = ng/mL; emit number, no label

Problem: So what's the measured concentration at 2 h for this one? Cc1cc(N2CCc3cc(F)ccc3C2)cc(C)c1NC(=O)CC(C)(C)C
Result: 158
